test: inhibition of PAO1 biofilm formation – strain PAO1, LB-PBS medium, absorbance 600 nm, primary screen (AID 1176); further: test concentration not given here; settings: P. aeruginosa PAO1 growth/biofilm, A600, 12 h; higher = more signal
OUTCOME_MEASURE: z-score
The response must contain the number and no unit.

Ask | z-score for O=C1OCCC/C=C\[C@H]2OC34C=CCN(Cn5nnc6ccccc65)C(=O)[C@H]3N(CCCO)C(=O)[C@@H]4C12 (some centres not stated) ?
Reply | 0.77

Ask | z-score for `C[C@]1(C(=O)NCC(F)(F)F)c2ccccc2C(=O)N(Cc2cc(F)cc(C(F)(F)F)c2)[C@H]1c1ccc(CO)cc1` ?
Reply | 1.32

Ask | z-score for `CC(C)C(=C=CC[C@H](O)c1ccccc1OCCO)CCO` ?
Reply | 1.17

Ask | z-score for `NC(=O)NCC#Cc1ccc2c(c1)[C@]1(C(=O)N2)[C@H](C(=O)NC[C@H](O)c2ccccc2)[C@H]2C(=O)O[C@H](c3ccccc3)[C@H](c3ccccc3)N2[C@@H]1c1ccccc1OCCO` ?
Reply | 1.08

Ask | z-score for `Cc1ccc(S[C@]2(C(=O)NCC(C)C)CC(=O)N(Cc3ccccc3)[C@@H]2c2ccc(CO)cc2)cc1` ?
Reply | 0.525

Ask | z-score for `O=C1O[C@H](c2ccccc2)[C@H](c2ccccc2)N2[C@H]1[C@@H](C(=O)NC[C@H](O)c1ccccc1)[C@]1(C(=O)Nc3ccc(C#CC4=CCCCC4)cc31)[C@H]2c1ccc(O)cc1` ?
Reply | 2.02

Ask | z-score for `COc1ccc([Si](C)(C)[C@H]2[C@H](CC(=O)N3CCC[C@H]3CO)O[C@@]3(C(=O)N(c4ccccc4)c4ccccc43)[C@@H]2C)cc1` ?
Reply | 0.826
